Exercise: for every item that follows, state its recorded Population Tubulin-Different-Phenotype (%).
System: HEK-293T
Experiment: Multiplex assay against HEK293T;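 note: share of the cells with healthy nuclei that show this phenotype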
Format: toxicity, cell-based
Details: human, 48 h, 10 µM, compound concentration 10 uM, replicate 1
Numbers only, in %.

Use these answered entries as a reference point.
CCn1c(-c2nonc2N)nc2cnc(Oc3cccc(NC(=O)c4ccc(OCCN5CCOCC5)cc4)c3)cc21 [GSK-269962A] ... 97
COc1cc2c(NC3CCN(C(C)C)CC3)nc(N3CCC(F)(F)CC3)nc2cc1OCCCN1CCCC1 ... 82

Look at this compound and give its reported Population Tubulin-Different-Phenotype (%). CNc1oc(-c2cccc3ccccc23)nc1C#N
0
